// inhibition at 1 µM lookup, one value per entry
Molecular target: Human Glucocorticoid Receptor (hGR) (Homo sapiens)
Construct: the resultant supernatant (=cytosol of IM9 cells) was centrifuged at 103,000 g for 60 minutes; host or cells: IM9 human lymphoblast cell line (cytosol fraction)
Experiment: Human Glucocorticoid Receptor (hGR) Ligand-Binding Assay (competitive 3H-dexamethasone binding, IM9 cytosol)
Conditions: compound at 1 μM; competition with 3H-dexamethasone; cytosol of IM9 cells; read-out: % inhibition hGR at 1 μM
measurementName: inhibition at 1 µM

In [3]: df
Out[3]:
                                   molecule  measuredresult
0  Cn1cc(Cn2ncc3cc(N4C(=O)C[C@H](NC(=O)C(C)(F)F)C4c4ccccc4)ccc32)ccc1=O (stereo in doubt) [Example 34]       40 to 60%
1  Cn1cc(-n2ncc3cc(N4C(=O)C[C@H](NC(=O)C(C)(F)F)[C@H]4c4cccc(F)c4)ccc32)ccc1=O [Example 5]           > 85%
2  Cn1cc(-n2ncc3cc(N4C(=O)C[C@H](NC(=O)C5CC5)[C@H]4c4ccccc4F)ccc32)ccc1=O [Example 39]       60 to 85%
3  Cc1ccccc1[C@@H]1[C@@H](NC(=O)C(C)(F)F)CC(=O)N1c1ccc2c(cnn2-c2ccc(=O)n(C)c2)c1 [Example 43]           > 85%
4  Cn1cc(-n2ncc3cc(N4C(=O)C[C@H](NC(=O)C(C)(F)F)C4c4ccc5c(c4)OCCO5)ccc32)ccc1=O (stereo in doubt) [Example 3]           > 85%
5  COc1ccc(-n2ncc3cc(N4C(=O)C[C@H](NC(=O)C(C)(F)F)C4c4ccccc4)ccc32)cn1 (stereo in doubt) [Example 22]       60 to 85%

---

// inhibition at 1 µM lookup, one value per entry
Target: Human Glucocorticoid Receptor (hGR) (Homo sapiens, UniProt P04150)
Construct: the resultant supernatant (=cytosol of IM9 cells) was centrifuged at 103,000 g for 60 minutes; host or cells: IM9 human lymphoblast cell line (cytosol fraction)
Sequence (P04150 whole entry): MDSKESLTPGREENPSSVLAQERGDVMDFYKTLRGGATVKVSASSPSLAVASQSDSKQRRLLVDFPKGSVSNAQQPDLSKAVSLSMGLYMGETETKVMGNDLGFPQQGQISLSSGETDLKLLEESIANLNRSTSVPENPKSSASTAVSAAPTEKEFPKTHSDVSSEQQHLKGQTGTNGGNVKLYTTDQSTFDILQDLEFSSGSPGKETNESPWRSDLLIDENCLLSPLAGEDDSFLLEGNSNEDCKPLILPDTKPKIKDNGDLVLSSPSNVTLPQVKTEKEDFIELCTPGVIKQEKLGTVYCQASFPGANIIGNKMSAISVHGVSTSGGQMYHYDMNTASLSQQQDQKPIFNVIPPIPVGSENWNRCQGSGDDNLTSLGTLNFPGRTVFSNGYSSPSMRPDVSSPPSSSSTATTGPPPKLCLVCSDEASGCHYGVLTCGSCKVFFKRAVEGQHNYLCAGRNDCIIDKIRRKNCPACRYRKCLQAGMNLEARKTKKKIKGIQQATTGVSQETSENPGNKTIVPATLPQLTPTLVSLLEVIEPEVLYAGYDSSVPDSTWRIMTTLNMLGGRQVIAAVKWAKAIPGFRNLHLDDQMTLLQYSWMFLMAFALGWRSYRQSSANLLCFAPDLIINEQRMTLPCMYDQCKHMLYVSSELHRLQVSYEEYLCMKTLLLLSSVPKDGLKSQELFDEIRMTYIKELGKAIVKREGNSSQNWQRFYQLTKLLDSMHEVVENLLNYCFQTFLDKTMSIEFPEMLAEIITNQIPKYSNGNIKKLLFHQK
Assay: Human Glucocorticoid Receptor (hGR) Ligand-Binding Assay (competitive 3H-dexamethasone binding, IM9 cytosol)
Details: compound at 1 μM; competition with 3H-dexamethasone; cytosol of IM9 cells; read-out: % inhibition hGR at 1 μM
measurementName: inhibition at 1 µM

                                   compound     measurementname  measuredresult
0  Cc1cnc(C(=O)N[C@H]2CC(=O)N(c3ccc4c(cnn4-c4ccc(=O)n(C)c4)c3)[C@@H]2c2ccccc2)s1 (relative stereo)  inhibition at 1 µM           > 85%
1  Cn1cc(-n2ncc3cc(N4C(=O)C[C@H](NC(=O)c5ncco5)[C@H]4c4ccccc4)ccc32)ccc1=O  inhibition at 1 µM           > 85%
2  Cn1cc(-n2ncc3cc(N4C(=O)C[C@H](NC(=O)C(C)(F)F)C4c4ccc(F)cc4F)ccc32)ccc1=O (stereo in doubt)  inhibition at 1 µM           > 85%
3  COc1cc([C@@H]2[C@@H](NC(=O)C(C)(F)F)CC(=O)N2c2ccc3c(cnn3-c3ccc(=O)n(C)c3)c2)ccc1F  inhibition at 1 µM       60 to 85%
4  Cn1cc(-n2ncc3cc(N4C(=O)C[C@H](NC(=O)C(C)(F)F)[C@H]4c4ccccc4F)ccc32)ccc1=O  inhibition at 1 µM           > 85%
5  Cn1cc(-n2ncc3cc(N4C(=O)C[C@H](NC(=O)[C@H]5CCCO5)[C@H]4c4ccccc4)ccc32)ccc1=O  inhibition at 1 µM       60 to 85%
6  Cn1cc(-n2ncc3cc(N4C(=O)C[C@H](NC(=O)c5cocn5)[C@H]4c4ccccc4)ccc32)ccc1=O  inhibition at 1 µM       60 to 85%
